Assay: Pharmacokinetics following intravenous and oral administration in SD rats
Type: in vivo
Conditions: male, SD, rat, plasma, po, 10 mg/kg, PO 10 mg/kg, Mean of 3 rats, read-out: Cmax
Excerpt: Dose formulation preparation for PO: Weight out the required amount of compound 74. Added approximately 70% of 0.5% CMC-Na with stirring, vortexing and sonication to mix well until visually well suspension. Then added the remaining vehicle to target total volume and vortex-mix. Dose formulation preparation for IV: Weight out the required amount of compound 74. […]
property: Cmax
Please format your answer as a value with the unit trailing.

Form field Cmax, entry `CCc1nc2ccccn2c1C(=O)c1cc(Br)c(O)c(C#N)c1` : 8140 ng/mL
